Data provenance is patent US20020026052A1.

MEASURED_TARGET: Rat2 fibroblasts stably transformed with v-Src/Hu c-Src fusion gene (Homo sapiens, UniProt P12931, cells depend on it, form not given)
Sequence (P12931 whole entry, change not shown, the tested form may be a part): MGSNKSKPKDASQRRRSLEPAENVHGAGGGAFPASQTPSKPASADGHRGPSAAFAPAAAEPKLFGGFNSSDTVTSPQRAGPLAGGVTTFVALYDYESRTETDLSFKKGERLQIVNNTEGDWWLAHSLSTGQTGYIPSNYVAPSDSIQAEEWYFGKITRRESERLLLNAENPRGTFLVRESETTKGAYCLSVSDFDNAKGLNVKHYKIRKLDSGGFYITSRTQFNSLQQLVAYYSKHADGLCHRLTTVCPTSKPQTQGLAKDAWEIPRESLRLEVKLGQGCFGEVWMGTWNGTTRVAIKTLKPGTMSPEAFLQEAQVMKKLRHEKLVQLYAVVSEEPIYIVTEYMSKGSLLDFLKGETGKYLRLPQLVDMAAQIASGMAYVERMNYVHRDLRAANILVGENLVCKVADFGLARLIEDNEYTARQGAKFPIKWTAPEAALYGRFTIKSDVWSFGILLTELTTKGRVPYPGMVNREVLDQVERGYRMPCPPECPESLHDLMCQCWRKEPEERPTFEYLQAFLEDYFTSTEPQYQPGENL
MEASUREMENT_NOTES: Anchorage Independent Src-transformed Fibroblast Proliferation Assay
Format: cell-based, Rat
CONDITION_DETAILS: suspension growth, MTS reagent on Day 5; read-out: anch-indep src-tx fib IC50
Procedure: Anchorage Independent Src-transformed Fibroblast Proliferation Assay Rat2 fibroblasts stably transformed with a plasmid containing a CMV promotor controlled v-Src/Hu c-Src fusion gene in which the catalytic domain of human c-Src was inserted in place of the v-Src catalytic domain in the v-Src gene are used for the measurement of src dependent suspension growth. […] Multiple entries for a given compound indicate that it was tested multiple times.
MEASUREMENT_NAME: GI50 (µM)
Answer with a number only, understood to be in µM.

Below, each entry is followed by its recorded GI50 result.
If you can, please state the reported GI50 value of COc1cc(Nc2c(C#N)cnc3cc(C#CCN4CCOCC4)c(OC)cc23)c(Cl)cc1Cl [Example 166] .
0.72

// same read-out, input: COc1cc(Nc2c(C#N)cnc3cc(-c4ccc(CNCCS(=O)(=O)c5ccccc5)o4)ccc23)c(Cl)cc1Cl [Example 58]
5.1

And the next one, COC(=O)C1CCN(Cc2ccc(-c3ccc4c(Nc5cc(OC)c(Cl)cc5Cl)c(C#N)cnc4c3)cc2)CC1 [Example 231] ?
0.39

How about this molecule: CCN(CC)Cc1ccc(-c2ccc3c(Nc4cc(OC)c(Cl)cc4Cl)c(C#N)cnc3c2)cc1 [Example 87]
0.22

Try this molecule next: COc1cc(Nc2c(C#N)cnc3cc(-c4ccc(CN5CCCCC5C(=O)O)cc4)ccc23)c(Cl)cc1Cl (stereo not shown) [Example 147]
4.6

Proceeding to the next molecule to report its GI50.
// GI50 lookup, key: CCN1CCN(Cc2cc(-c3ccc4c(Nc5cc(OC)c(Cl)cc5Cl)c(C#N)cnc4c3)cs2)CC1 [Example 19]
0.16

----------
This listing pairs compounds with measured melting point.

Illustrative cases are given below, each with its answer.
// query melting point value for entry COc1cc(Nc2c(C#N)cnc3cc(-c4cc(CN5CCOCC5)c(CN5CCOCC5)s4)c(OC)cc23)c(Cl)cc1Cl
120 to 124 °C

Likewise for COc1cc(Nc2c(C#N)cnc3cc(-c4ccc(CN5CCC[C@@H]5C(N)=O)cc4)ccc23)c(Cl)cc1Cl ?
180 to 182 °C

---
Which value of melting point has been reported for COc1cc(Nc2c(C#N)cnc3cc(-c4ccc(C=O)o4)ccc23)c(Cl)cc1Cl in the records?
> 250 °C

Same for COc1cc(Nc2c(C#N)cnc3cc(-c4ccc(CN5CCOCC5)cc4)ccc23)c(Cl)cc1F
174 to 178 °C

----------
MEASURED_TARGET: Rat2 fibroblasts stably transformed with v-Src/Hu c-Src fusion gene (Homo sapiens, UniProt P12931, cells depend on it, form not given)
MEASUREMENT_NOTES: Anchorage Independent Src-transformed Fibroblast Proliferation Assay
Type: cell-based, Rat
CONDITION_DETAILS: suspension growth, MTS reagent on Day 5; read-out: anch-indep src-tx fib IC50
Protocol: Anchorage Independent Src-transformed Fibroblast Proliferation Assay Rat2 fibroblasts stably transformed with a plasmid containing a CMV promotor controlled v-Src/Hu c-Src fusion gene in which the catalytic domain of human c-Src was inserted in place of the v-Src catalytic domain in the v-Src gene are used for the measurement of src dependent suspension growth. […] Multiple entries for a given compound indicate that it was tested multiple times.
We begin with a simple list: items and their reported log10(GI50).
Scale: decimal log of GI50, GI50 in nM.

Which log10(GI50) reading was recorded for the compound COc1cc(Nc2c(C#N)cnc3cc(-c4ccc(CCl)cc4)ccc23)c(Cl)cc1Cl [Example 102] ?
3.88

What do you have for COc1cc(Nc2c(C#N)cnc3cc(-c4ccc(CN(C)C)cc4)ccc23)c(Cl)cc1Cl [Example 86] ?
2.32

Also check COc1cc(Nc2c(C#N)cnc3cc(-c4ccc(CN5CCCCC5)s4)ccc23)c(Cl)cc1Cl [Example 78]
2.15

How about COc1cc(Nc2c(C#N)cnc3cc(-c4ccc(C=O)o4)ccc23)c(Cl)cc1Cl [Example 6] ?
3.20

Next up:
Need log10(GI50), item COc1cc(Nc2c(C#N)cnc3cc(-c4csc(CN5CCC(O)CC5)c4)ccc23)c(Cl)cc1Cl [Example 192]
2.23

----------
Recorded melting point by entry

What does the data say about its melting point? Entry: COc1ccc(Cl)c(Nc2c(C#N)cnc3cc(-c4csc(CN5CCOCC5)c4)ccc23)c1 [Example 131]
110 to 115 °C

Let us now turn to COc1cc(Nc2c(C#N)cnc3cc(-c4ccc(/C=C/CN5CCOCC5)s4)ccc23)c(Cl)cc1Cl [Example 21]
145 °C

Next:
Item under review: Cn1ccnc1Sc1ccc(Nc2c(C#N)cnc3cc(-c4cccc(CN5CCOCC5)n4)ccc23)cc1Cl [Example 199] . Reported melting point?
232 to 234 °C

What about this compound? CCN1CCN(c2ccc(-c3ccc4c(Nc5cc(OC)c(Cl)cc5Cl)c(C#N)cnc4c3)cn2)CC1 [Example 197]
264 to 266 °C

Now try COc1cc(Nc2c(C#N)cnc3ccc(-c4csc(C=O)c4)cc23)c(Cl)cc1Cl [Example 45] .
233 to 237 °C

----------
Catalogue of melting point readings, one per entry.

Example cases with answers are listed next.
Report melting point for CCOC(=O)CC1CCN(Cc2ccc(-c3ccc4c(Nc5cc(OC)c(Cl)cc5Cl)c(C#N)cnc4c3)cc2)CC1 please.
142 to 144 °C

Now the compound COc1cc(Nc2c(C#N)cnc3cc(-c4cc(CN5CCOCC5)ccn4)ccc23)c(Cl)cc1Cl
180 to 182 °C

Can you handle COc1cc(Nc2c(C#N)cnc3cc(-c4ccc(CN5CCOCC5)c(CN5CCOCC5)c4)ccc23)c(Cl)cc1C next?
186 to 188 °C

Next entry: COc1cc(Nc2c(C#N)cnc3cc(-n4cccc4)ccc23)c(Cl)cc1Cl
205 to 207 °C

What about Cn1ccnc1Sc1ccc(Nc2c(C#N)cnc3cc(-c4ccc(CN5CCOCC5)nc4)ccc23)cc1Cl ?
233 to 235 °C

Next:
What value of measured melting point is listed for COc1cc(Nc2c(C#N)cnc3cc(-n4cccc4CN(C)C)ccc23)c(Cl)cc1Cl ?
157 to 158 °C

Ok, now COc1cc(Nc2c(C#N)cnc3cc(-c4ccc(CN5CCCCC5C(=O)O)cc4)ccc23)c(Cl)cc1Cl (stereo not shown)
230 °C (dec.)

And for COc1cc(Nc2c(C#N)cnc3cc(-c4cccc5ccccc45)ccc23)c(Cl)cc1Cl ?
192 to 193 °C

Again, but for COc1cc(Nc2c(C#N)cnc3cc(-c4ccc(CN5CCS(=O)(=O)CC5)cc4)ccc23)c(Cl)cc1Cl
248 to 251 °C

----------
MEASURED_TARGET: Rat2 fibroblasts stably transformed with v-Src/Hu c-Src fusion gene (Homo sapiens, UniProt P12931, cells depend on it, form not given)
MEASUREMENT_NOTES: Anchorage Independent Src-transformed Fibroblast Proliferation Assay
Format: cell-based, Rat
CONDITION_DETAILS: suspension growth, MTS reagent on Day 5; read-out: anch-indep src-tx fib IC50
MEASUREMENT_NAME: GI50

Past entries and their recorded results:
// returns reported GI50 for input COc1cc(Nc2c(C#N)cnc3cc(-c4ccccc4C=O)ccc23)c(Cl)cc1Cl
> 10 µM

Repeat for the following compound: COc1cc(Nc2c(C#N)cnc3cc(/C=C/c4ccccc4)ccc23)c(Cl)cc1Cl
> 10 µM

More entries:
# get_value(readout='GI50', item= N#Cc1cnc2cc(-c3cc(CN4CCOCC4)c(CN4CCOCC4)s3)ccc2c1Nc1ccc(Cl)cc1Cl )
0.31 µM

Field entry: COc1cc(Nc2c(C#N)cnc3cc(-c4ccccc4CN4CCOCC4)ccc23)c(Cl)cc1Cl
> 10 µM

----------
Here the recorded melting point is given for each entry.

// below: answered compounds
Name the recorded melting point for CCOC(=O)C1CCCN(Cc2ccc(-c3ccc4c(Nc5cc(OC)c(Cl)cc5Cl)c(C#N)cnc4c3)cc2)C1 (stereo not shown) [Example 148] .
67 to 70 °C

Ok, now COc1cc(Nc2c(C#N)cnc3cc(/C=C/C(=O)OC(C)(C)C)ccc23)c(Cl)cc1Cl [Example 142]
203 to 204 °C

What would you report for N#Cc1cnc2ccc(-n3cccc3C=O)cc2c1Nc1cccc(Br)c1 [Example 60] ?
94 to 95 °C

// query: Cn1ccnc1Sc1ccc(Nc2c(C#N)cnc3cc(-c4ccc(CN5CCOCC5)cn4)ccc23)cc1Cl [Example 187]
225 to 227 °C

// query: Cc1cc(Nc2c(C#N)cnc3cc(-c4csc(CN5CCOCC5)c4)ccc23)ccc1OCc1ccccn1 [Example 95]
217 to 219 °C

Lookup COc1cc(Nc2c(C#N)cnc3cc(-c4ccc(CN5CCC(C(=O)O)CC5)cn4)ccc23)c(Cl)cc1Cl [Example 177]
150 °C (dec.)

Now let's try a different one.
Reported melting point for COc1cc(Nc2c(C#N)cnc3cc(-c4ccc(CN5CCCC(C(=O)O)C5)cc4)ccc23)c(Cl)cc1Cl (stereo not shown) [Example 149] : what is it?
235 °C (dec.)
